- assay.comment: Toxicity liver stage against HepG2, at 10uM
- Type: cell-based
- Design: test concentration 10 uM, cell line HepG2-A16-CD81EGFP
- experimental.setup: human, HepG2-A16-CD81EGFP cells; read-out: INHIBITION
endpoint: cytotoxicity at 10 µM (%)
One number for each entry, in %.

[
  {
    "molecule": "O=S1(=O)COCCN1Cc1ccc(Cl)c(F)c1",
    "cytotoxicity at 10 µM, %": -11.6
  },
  {
    "molecule": "CN1CC(C(=O)NCCc2ccc3c(c2)OCO3)CC1=O (centres undefined)",
    "cytotoxicity at 10 µM, %": 2.55
  }
]

// for each molecule in input: emit cytotoxicity at 10 µM
1. COCCCN(C)C(=O)c1nnn(-c2ccccc2Cl)c1C
2. c1cnn(CCC2CCCCN2Cc2cnc(C3CCCCC3)nc2)c1 (centres undefined)
3. Cn1ncc2c1C(COCC1CC1)CN(c1ncc(F)cn1)C2 (centres undefined)
4. COC(CNC(=O)c1ccc[nH]1)c1cccc(Cl)c1 (centres undefined)
5. CC(C)n1[nH]c(=O)c2c1NC(=O)CC2c1cccnc1 (centres undefined)
6. Cc1ccc(OCCNC(=O)C(C)n2cncn2)cc1 (centres undefined)
7. CCc1nc(C2CCCN2C(=O)c2ccc3c(c2)nnn3CC)no1 (centres undefined)
8. Cc1ccc(OCC(=O)N2CCOCC(O)(CN3CCCC3)C2)cc1C (centres undefined)

Ans:
9.38
0.106
12.1
-0.23
-6.15
-3.53
4.5
-4.05
